- experimental.target: Calcitonin gene-related peptide type 1 receptor (Homo sapiens, UniProt O60894+Q16602)
- Sequence (Q16602 whole entry, one chain of several): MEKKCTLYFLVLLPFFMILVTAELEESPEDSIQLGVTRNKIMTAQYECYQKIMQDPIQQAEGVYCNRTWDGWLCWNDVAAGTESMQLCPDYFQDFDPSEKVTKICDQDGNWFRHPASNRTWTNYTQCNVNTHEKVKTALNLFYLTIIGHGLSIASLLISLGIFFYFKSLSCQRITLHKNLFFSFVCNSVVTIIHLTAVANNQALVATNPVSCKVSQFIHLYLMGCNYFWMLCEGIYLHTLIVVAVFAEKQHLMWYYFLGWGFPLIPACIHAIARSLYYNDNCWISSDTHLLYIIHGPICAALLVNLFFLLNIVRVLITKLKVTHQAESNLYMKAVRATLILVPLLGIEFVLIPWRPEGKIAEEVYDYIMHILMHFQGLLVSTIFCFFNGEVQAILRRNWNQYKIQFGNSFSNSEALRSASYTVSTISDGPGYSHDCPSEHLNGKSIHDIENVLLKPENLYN
- test.description: Activity at CGRP receptor assessed as inhibition of CGRP-stimulated cAMP production
Recorded measurements of log10 IC50, one per entry
metric.name: log10 IC50 (log10 of the value in nM)

• O=C(N[C@@H]1N=C(c2ccccc2)c2ccccc2N(CC(F)(F)F)C1=O)N1CCC(n2cc(Cc3ccccc3)[nH]c2=O)CC1 = 2.65
• O=C(N[C@@H]1N=C(c2ccccc2)c2ccccc2N(CC(F)(F)F)C1=O)N1CCC(n2cc(-c3ccccn3)[nH]c2=O)CC1 = 1.57
• Cc1ccc(-c2cn(C3CCN(C(=O)N[C@@H]4N=C(c5ccccc5)c5ccccc5N(CC(F)(F)F)C4=O)CC3)c(=O)[nH]2)cc1 = 1.93
• O=C(N[C@@H]1N=C(c2ccccc2)c2ccccc2N(CC(F)(F)F)C1=O)N1CCC(N2Cc3cccnc3NC2=O)CC1 = 2.79
• O=C(N[C@@H]1N=C(c2ccccc2)c2ccccc2N(CC(F)(F)F)C1=O)N1CCC(n2nc(-c3ccccc3)[nH]c2=O)CC1 = 2.00
• O=C(N[C@@H]1N=C(c2ccccc2)c2ccccc2N(CC(F)(F)F)C1=O)N1CCC(N2CCNC2=O)CC1 = 3.49
• O=C(N[C@@H]1N=C(c2ccccc2)c2ccccc2N(CC(F)(F)F)C1=O)N1CCC(n2c(O)nc3c(Cl)cccc32)CC1 = 2.65
• N#Cc1cn(C2CCN(C(=O)N[C@@H]3N=C(c4ccccc4)c4ccccc4N(CC(F)(F)F)C3=O)CC2)c(=O)[nH]1 = 3.00

----------
- experimental.target: Calcitonin gene-related peptide type 1 receptor (Homo sapiens, UniProt O60894+Q16602)
- test.description: Displacement of [125I]CGRP from human recombinant CGRP receptor
pKi: −log10 of the molar value.
metric.name: pKi

• O=C(N[C@@H]1N=C(c2ccccc2)c2ccccc2N(CC(F)(F)F)C1=O)N1CCC(n2c(=O)[nH]c3ccc(F)cc32)CC1 = 6.01
• O=C(O)c1ccc2c(c1)[nH]c(=O)n2C1CCN(C(=O)N[C@@H]2N=C(c3ccccc3)c3ccccc3N(CC(F)(F)F)C2=O)CC1 = 6.09
• O=C(N[C@@H]1N=C(c2ccccc2)c2ccccc2N(CC(F)(F)F)C1=O)N1CCC(N2Cc3ncccc3NC2=O)CC1 = 6.02
• O=C(N[C@@H]1N=C(c2ccccc2)c2ccccc2N(CC(F)(F)F)C1=O)N1CCC(n2cc(Cc3ccccc3)[nH]c2=O)CC1 = 5.95
• O=C(N[C@@H]1N=C(c2ccccc2)c2ccccc2N(CC(F)(F)F)C1=O)N1CCC(n2c(O)nc3c2ccc[n+]3[O-])CC1 = 6.00
• O=C(N[C@@H]1N=C(c2ccccc2)c2ccccc2N(CC(F)(F)F)C1=O)N1CCC(n2c(=O)[nH]c3cnccc32)CC1 = 6.16
• O=C(N[C@@H]1N=C(c2ccccc2)c2ccccc2N(CC(F)(F)F)C1=O)N1CCC(N2CC(c3ccncc3)NC2=O)CC1 (stereo partly drawn) = 6.14
• NC(=O)c1ccc2c(c1)[nH]c(=O)n2C1CCN(C(=O)N[C@@H]2N=C(c3ccccc3)c3ccccc3N(CC(F)(F)F)C2=O)CC1 = 5.98

----------
- experimental.target: Calcitonin gene-related peptide type 1 receptor (Homo sapiens, UniProt O60894+Q16602)
- test.description: Activity at CGRP receptor assessed as inhibition of CGRP-stimulated cAMP production
pIC50: −log10 of the molar value.
metric.name: pIC50

• O=C(N[C@@H]1N=C(c2ccccc2)c2ccccc2N(CC(F)(F)F)C1=O)N1CCC(n2cc(-c3ccc(OC(F)F)cc3)nc2O)CC1 = 7.13
• O=C1CN(C2CCN(C(=O)N[C@@H]3N=C(c4ccccc4)c4ccccc4N(CC(F)(F)F)C3=O)CC2)C(=O)N1 = 7.00
• O=C(N[C@@H]1N=C(c2ccccc2)c2ccccc2N(CC(F)(F)F)C1=O)N1CCC(n2cc(-c3ccc(F)cc3)[nH]c2=O)CC1 = 6.97
